Each record here notes measured ΔTm.
Biological target: Bromodomain and PHD finger-containing protein 3 (Homo sapiens) (UniProt Q9ULD4)
Sequence (whole entry): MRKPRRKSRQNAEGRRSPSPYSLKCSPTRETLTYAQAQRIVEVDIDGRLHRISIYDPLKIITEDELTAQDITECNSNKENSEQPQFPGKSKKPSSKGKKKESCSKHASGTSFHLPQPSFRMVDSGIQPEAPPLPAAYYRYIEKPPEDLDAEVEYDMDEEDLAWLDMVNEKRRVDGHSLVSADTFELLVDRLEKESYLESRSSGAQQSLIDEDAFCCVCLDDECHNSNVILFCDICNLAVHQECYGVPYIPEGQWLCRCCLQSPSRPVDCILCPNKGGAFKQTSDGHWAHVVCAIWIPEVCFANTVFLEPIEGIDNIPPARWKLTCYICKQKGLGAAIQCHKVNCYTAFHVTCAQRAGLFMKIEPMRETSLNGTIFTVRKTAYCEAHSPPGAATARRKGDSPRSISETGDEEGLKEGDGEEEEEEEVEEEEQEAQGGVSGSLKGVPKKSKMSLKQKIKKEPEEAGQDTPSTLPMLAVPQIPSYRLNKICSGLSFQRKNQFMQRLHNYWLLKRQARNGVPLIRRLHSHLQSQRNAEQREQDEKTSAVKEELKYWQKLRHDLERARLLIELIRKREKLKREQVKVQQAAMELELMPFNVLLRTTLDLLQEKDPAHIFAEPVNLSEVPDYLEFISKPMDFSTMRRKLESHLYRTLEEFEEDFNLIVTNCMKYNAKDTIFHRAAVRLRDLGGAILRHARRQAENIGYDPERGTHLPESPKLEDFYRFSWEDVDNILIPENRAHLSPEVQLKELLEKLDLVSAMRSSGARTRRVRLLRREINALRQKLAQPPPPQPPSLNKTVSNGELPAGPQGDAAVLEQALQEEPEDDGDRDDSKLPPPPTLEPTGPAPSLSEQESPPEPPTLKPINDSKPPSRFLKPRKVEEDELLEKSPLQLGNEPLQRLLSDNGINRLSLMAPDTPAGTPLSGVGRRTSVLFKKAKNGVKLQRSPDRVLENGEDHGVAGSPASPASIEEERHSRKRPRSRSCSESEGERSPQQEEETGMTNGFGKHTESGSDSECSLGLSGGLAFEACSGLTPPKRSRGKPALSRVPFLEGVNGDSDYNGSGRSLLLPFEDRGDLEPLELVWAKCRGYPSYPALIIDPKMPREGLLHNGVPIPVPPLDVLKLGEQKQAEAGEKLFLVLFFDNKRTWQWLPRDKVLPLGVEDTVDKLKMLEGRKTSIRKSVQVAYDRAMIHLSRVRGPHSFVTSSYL
Number in °C, nothing else.

Use the examples below as a reference point.
INSERT INTO assay_data (chemsmiles, experimentalresult) VALUES
  ('Cc1cc(C#N)ccc1S(=O)(=O)Nc1ccc2c(ccc(=O)n2C)c1', 2.4),
  ('Cn1c(=O)ccc2cc(NS(=O)(=O)c3ccccc3)ccc21', 1.5),
  ('Cn1c(=O)ccc2cc(NS(=O)(=O)c3ccc(C#N)cc3F)ccc21', 1.2),
  ('CCn1c(=O)c(C)cc2cc(NS(=O)(=O)c3ccc(C#N)cc3)ccc21', 1.2);

Quick note, ΔTm for Cc1cc2cc(NS(=O)(=O)c3ccc(C#N)cc3)ccc2n(C)c1=O landed at 4.5
